target-under-test: fucolectin-related protein (FRP) (Streptococcus pneumoniae)
Sequence (A0A0H2US34 1-1038): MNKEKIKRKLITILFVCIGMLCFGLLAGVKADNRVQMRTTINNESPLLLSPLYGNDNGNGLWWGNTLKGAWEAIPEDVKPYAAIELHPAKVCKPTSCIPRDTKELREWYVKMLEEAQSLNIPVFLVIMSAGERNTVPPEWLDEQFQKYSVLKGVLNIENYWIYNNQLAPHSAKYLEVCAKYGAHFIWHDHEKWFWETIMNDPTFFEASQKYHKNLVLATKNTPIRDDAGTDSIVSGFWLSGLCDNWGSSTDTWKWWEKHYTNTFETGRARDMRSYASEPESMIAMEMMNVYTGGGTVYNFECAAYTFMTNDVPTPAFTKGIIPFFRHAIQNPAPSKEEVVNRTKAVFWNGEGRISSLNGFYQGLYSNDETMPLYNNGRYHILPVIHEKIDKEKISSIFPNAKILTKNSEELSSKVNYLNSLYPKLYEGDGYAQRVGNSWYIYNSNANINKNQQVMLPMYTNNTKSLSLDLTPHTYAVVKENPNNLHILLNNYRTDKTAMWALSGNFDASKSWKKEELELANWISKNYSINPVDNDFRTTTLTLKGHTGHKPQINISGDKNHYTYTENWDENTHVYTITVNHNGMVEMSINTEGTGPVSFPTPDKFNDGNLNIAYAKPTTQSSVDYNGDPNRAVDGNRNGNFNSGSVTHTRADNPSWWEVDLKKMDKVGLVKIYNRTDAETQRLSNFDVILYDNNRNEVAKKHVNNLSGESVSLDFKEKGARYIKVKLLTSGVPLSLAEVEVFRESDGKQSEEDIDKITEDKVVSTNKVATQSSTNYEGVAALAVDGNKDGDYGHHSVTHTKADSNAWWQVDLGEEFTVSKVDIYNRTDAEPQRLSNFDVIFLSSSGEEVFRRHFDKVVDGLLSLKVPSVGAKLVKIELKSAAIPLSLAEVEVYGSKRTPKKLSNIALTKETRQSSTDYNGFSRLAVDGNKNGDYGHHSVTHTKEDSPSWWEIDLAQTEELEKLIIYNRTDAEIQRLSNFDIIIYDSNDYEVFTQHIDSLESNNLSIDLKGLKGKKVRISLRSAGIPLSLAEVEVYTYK
experimental-details: enzyme-linked lectinosorbent inhibition assay
Assay type: binding
details: TBS-T pH 7.35, 20 °C; no metal needed; ratio from amounts giving 50% inhibition
Molar Relative Potency / LFuc as 1.0 listing for selected compounds.
parameter: Molar Relative Potency / LFuc as 1.0

[
  {
    "compound": "CO[C@@H]1O[C@@H](C)[C@@H](O)[C@@H](O)[C@@H]1O [compound 5, Methyl-α-LFuc]",
    "result": "4.4 relative to LFuc = 1.0"
  },
  {
    "compound": "C[C@@H]1O[C@@H](Oc2ccc([N+](=O)[O-])cc2)[C@@H](O)[C@H](O)[C@@H]1O [compound 2, p-Nitrophenyl-α-LFuc]",
    "result": "34.5 relative to LFuc = 1.0"
  },
  {
    "compound": "CO[C@H]1O[C@@H](C)[C@@H](O)[C@@H](O)[C@@H]1O [compound 3, Methyl-β-LFuc]",
    "result": "21.9 relative to LFuc = 1.0"
  }
]
